testedTarget: UniProtKB P09960
Values of ΔTm strictly less than 5 °C map to rule met, and values of at least 5 °C map to rule not met.

structuresmilesstring=CN(CCCOc1ccc(Cc2ccccc2)cc1)CCC(=O)O answerlabel="rule not met"

Task: In plain terms, does "Nc1nc(-c2ccc(Cc3ccccc3)cc2)cs1" come in under 5 °C for ΔTm?
Result: rule not met

Task: Report whether reported ΔTm is lower than 5 °C (strictly) for "C[C@H](CS)C(=O)N1CCC[C@H]1C(=O)O"
Result: rule met

====

Listing of entries alongside the reported Kd.
testedTarget: Leukotriene A-4 hydrolase (Homo sapiens)
Sequence (P09960 whole entry): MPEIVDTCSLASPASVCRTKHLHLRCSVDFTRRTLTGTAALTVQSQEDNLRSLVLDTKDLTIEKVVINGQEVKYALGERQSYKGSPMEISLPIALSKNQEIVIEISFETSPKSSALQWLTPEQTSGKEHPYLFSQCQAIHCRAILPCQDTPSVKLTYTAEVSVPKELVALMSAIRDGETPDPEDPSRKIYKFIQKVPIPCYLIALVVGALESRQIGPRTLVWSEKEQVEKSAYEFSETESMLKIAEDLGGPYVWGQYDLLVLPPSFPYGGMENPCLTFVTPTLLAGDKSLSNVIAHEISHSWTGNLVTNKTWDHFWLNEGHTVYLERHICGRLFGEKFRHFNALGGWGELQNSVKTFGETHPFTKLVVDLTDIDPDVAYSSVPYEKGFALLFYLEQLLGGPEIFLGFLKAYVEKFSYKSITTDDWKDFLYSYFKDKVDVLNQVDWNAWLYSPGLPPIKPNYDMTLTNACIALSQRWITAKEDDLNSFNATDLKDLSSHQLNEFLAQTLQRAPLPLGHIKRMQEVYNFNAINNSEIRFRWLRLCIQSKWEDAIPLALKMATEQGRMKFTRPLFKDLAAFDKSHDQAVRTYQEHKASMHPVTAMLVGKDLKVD
methodSummary: Binding affinity to human C-terminal his6-tagged/N-terminal T7 gene leader sequence-tagged LTA4H at 35 degC by ITC method

Below: 2 molecules and their reported Kd.
structuresmilesstring=C[C@H](CS)C(=O)N1CCC[C@H]1C(=O)O observedproperty=Kd measured="8470 nM"
structuresmilesstring=CN(C)CCOc1ccc(Oc2ccccc2)cc1 observedproperty=Kd measured="270 nM"

Then there is this molecule:
The molecule listed as "Nc1nc(-c2ccc(Cc3ccccc3)cc2)cs1" has a reported Kd of 220 nM

This collection of values is drawn from ChEMBL document CHEMBL3860073.
